# MEASUREMENT_PROTOCOL: Cytotoxicity against African green monkey Vero cells assessed cell viability at 10 uM relative to control
# Type: toxicity, cell-based
# RUN_CONDITIONS: chlorocebus sabaeus, read-out: Activity
ATTRIBUTE_MEASURED: viability at 10 µM (%)

- SMILES: "COc1ccc(-c2csc(NC(=O)/C=C/c3cccs3)n2)c(OC)c1"
  ATTRIBUTE_MEASURED: "viability at 10 µM"
  UNIT_TAG: "%"
  OBSERVED_VALUE: 106

Provenance of the data: ChEMBL document CHEMBL3867455
